Test system: Male Brown Norway rats
Run description: Antigen-induced pulmonary inflammation in a rat asthma model (eosinophils and Th2 cytokines in BALF)
Format: in vivo
Study conditions: 0.1 mg/kg intratracheally 24 hours before and 24 hours after OVA-challenge, BALF 48 hours after challenge
Readout: IL-13 in BALF, inhibition (%) to OVA-Challenge control
Quick note: give the figure in %, leave out the unit.

Answered examples (4):
[[record]]
compound_structure_string = "CCN(CC)CC(=O)N(CCCn1c(CCOC)nc2c(N)nc3ccccc3c21)Cc1cccc(OCC(=O)OC)c1"
unit_tag = "%"
numeric_result = 22

[[record]]
compound_structure_string = "CCN(CC)CC(=O)N(CCCn1c(CCOC)nc2c(N)nc3ccccc3c21)Cc1cccc(OC(C)(C)C(=O)OC)c1"
unit_tag = "%"
numeric_result = 89

[[record]]
compound_structure_string = "CCCCc1nc2c(N)nc3ccccc3c2n1CCCN(Cc1cccc(OCC(=O)OC)c1)C(=O)CN(C)C"
unit_tag = "%"
numeric_result = 89

[[record]]
compound_structure_string = "CCN(CC)CC(=O)N(CCCn1c(CCOC)nc2c(N)nc3ccccc3c21)Cc1cccc(OCC(=O)OC(C)C)c1F"
unit_tag = "%"
numeric_result = 50


Consider now this further compound.
Ask: Given the compound CCN(CC)CC(=O)N(CCCn1c(CCOC)nc2c(N)nc3ccccc3c21)Cc1cccc(OCC(=O)OC(C)C)c1 , write its reported IL-13 in BALF, inhibition (%) to OVA-Challenge control.
Result: 72

---

Target of assay: human TLR7 (Homo sapiens)
Construct: TLR7 in pUNO vector, blasticidin selection
Sequence (Q9NYK1 27-1049): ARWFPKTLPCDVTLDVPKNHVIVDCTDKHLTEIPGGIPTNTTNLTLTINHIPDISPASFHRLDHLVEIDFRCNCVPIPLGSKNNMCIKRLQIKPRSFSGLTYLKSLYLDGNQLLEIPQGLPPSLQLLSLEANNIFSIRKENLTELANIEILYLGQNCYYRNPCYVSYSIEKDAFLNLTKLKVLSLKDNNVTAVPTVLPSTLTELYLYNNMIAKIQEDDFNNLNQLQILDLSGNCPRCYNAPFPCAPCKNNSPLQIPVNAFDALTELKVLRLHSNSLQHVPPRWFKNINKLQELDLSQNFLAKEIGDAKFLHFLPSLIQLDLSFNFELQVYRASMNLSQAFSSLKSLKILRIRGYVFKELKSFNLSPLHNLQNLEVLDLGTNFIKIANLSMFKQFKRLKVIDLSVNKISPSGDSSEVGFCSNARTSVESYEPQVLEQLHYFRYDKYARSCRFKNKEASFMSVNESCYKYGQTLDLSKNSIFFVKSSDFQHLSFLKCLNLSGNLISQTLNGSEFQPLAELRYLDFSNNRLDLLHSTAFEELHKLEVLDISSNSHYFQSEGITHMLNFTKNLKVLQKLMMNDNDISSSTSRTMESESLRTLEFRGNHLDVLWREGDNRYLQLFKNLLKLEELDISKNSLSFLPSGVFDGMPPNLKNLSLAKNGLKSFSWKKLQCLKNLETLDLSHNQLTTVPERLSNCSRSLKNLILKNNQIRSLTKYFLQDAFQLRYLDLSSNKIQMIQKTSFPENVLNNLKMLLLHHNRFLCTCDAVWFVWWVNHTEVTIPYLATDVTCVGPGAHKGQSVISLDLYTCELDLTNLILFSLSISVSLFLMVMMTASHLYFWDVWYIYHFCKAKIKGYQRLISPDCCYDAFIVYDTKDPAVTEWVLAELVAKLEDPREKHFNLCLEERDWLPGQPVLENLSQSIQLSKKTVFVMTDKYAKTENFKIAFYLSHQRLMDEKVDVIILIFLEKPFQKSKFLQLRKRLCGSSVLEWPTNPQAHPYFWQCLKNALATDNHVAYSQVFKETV
Run description: Human TLR7 Assay (SEAP reporter in HEK293 cells);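 also: Read-out is secreted alkaline phosphatase made under an NFkB/ELAM-1 composite promoter, reporting TLR7-triggered NFkB activation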
Study conditions: HEK293 cell line expressing human TLR7 and pNiFty2-SEAP reporter, overnight incubation at 37° C., 0.1% DMSO; read-out: hTLR7 EC50
Readout: pEC50
For clarity, pEC50 is expressed as the negative log10 of concentration in mol/L.

[[record]]
compound_structure_string = "CCCOCc1nc2c(N)nc3ccccc3c2n1CCCN(Cc1cccc(OC(C)(C)C(=O)OC)c1)C(=O)CN(CC)CC"
target_of_assay = "human TLR7 (Homo sapiens)"
numeric_result = 6.93

[[record]]
compound_structure_string = "CCOC(=O)COc1ccccc1CN(CCCn1c(CCOC)nc2c(N)nc3ccccc3c21)C(=O)CN(CC)CC"
target_of_assay = "human TLR7 (Homo sapiens)"
numeric_result = 6.86

[[record]]
compound_structure_string = "CCCCc1nc2c(N)nc3ccccc3c2n1CCCN(Cc1ccc(OCC(=O)OC)cc1)C(=O)CN(C)C"
target_of_assay = "human TLR7 (Homo sapiens)"
numeric_result = 6.61

[[record]]
compound_structure_string = "CCCCc1nc2c(N)nc3ccccc3c2n1CCCN(Cc1cccc(OC(C)(C)C(=O)OCC)c1)C(=O)CN(CC)CC"
target_of_assay = "human TLR7 (Homo sapiens)"
numeric_result = 7.06

[[record]]
compound_structure_string = "COCCc1nc2c(N)nc3ccccc3c2n1CCCN(Cc1cccc(OCC(=O)OC)c1)C(=O)CN1CCCCC1"
target_of_assay = "human TLR7 (Homo sapiens)"
numeric_result = 6.75

[[record]]
compound_structure_string = "CCN(CC)CC(=O)N(CCCn1c(CCOC)nc2c(N)nc3ccccc3c21)Cc1cccc(OCC(=O)OC)c1"
target_of_assay = "human TLR7 (Homo sapiens)"
numeric_result = 7.50

[[record]]
compound_structure_string = "COCCc1nc2c(N)nc3ccccc3c2n1CCOCCN(Cc1cccc(OCC(=O)OC(C)C)c1)C(=O)NCCN1CCCCC1"
target_of_assay = "human TLR7 (Homo sapiens)"
numeric_result = 6.58

[[record]]
compound_structure_string = "CCCCc1nc2c(N)nc3ccccc3c2n1CCCN(Cc1ccc(OCC(=O)OC)cc1)C(=O)CN1CCCCC1"
target_of_assay = "human TLR7 (Homo sapiens)"
numeric_result = 6.77


Ask: State its pEC50: CCOC(=O)C(C)(C)Oc1cccc(CN(CCCn2c(CCOC)nc3c(N)nc4ccccc4c32)C(=O)CN(CC)CC)c1
Result: 7.33

Ask: Complete the entry with pEC50 for CCOC(=O)COc1ccc(CN(CCCn2c(CCOC)nc3c(N)nc4ccccc4c32)C(=O)CN(CC)CC)cc1
Result: 7.42
